system: Fibroblast; assay: Incucyte cell viability with human fibroblast; assay type: toxicity, cell-based; details: 0 h, 10 µM, compound concentration 10 uM, replicate number 1; further: unitless GR value; below 1 slowed growth and below 0 cell loss
Outcome: condition met for Growth Rate of at least -0.4; condition not met for anything lower.

* Cc1cc(OCc2nc3ccccc3s2)ccc1NC(=O)Nc1ccc(Cl)c(Cl)c1 | condition not met
* CN[C@@H](C)C(=O)N[C@H](C(=O)N1CCC[C@H]1C(=O)Nc1sc(-c2ncco2)nc1-c1ccccc1)C1CCCCC1 | condition not met
* Cc1noc(C)c1-c1cnc2c(-c3ccc(C(=O)O)cc3)cn([C@@H](C)c3ccccn3)c2c1 | condition not met
* N#CC[C@H](C1CCCC1)n1cc(-c2ncnc3[nH]ccc23)cn1 | condition not met
* COc1ccc([C@@H]2Sc3ccccc3N(CCN(C)C)C(=O)[C@@H]2OC(C)=O)cc1.Cl [DILTIAZEM HYDROCHLORIDE] | condition met
* Cc1ccc(NC(=O)c2ccc3cnccc3c2)cc1C(=O)Nc1cnc(Nc2cccc(NC3CCN(C(=O)/C=C/CN(C)C)CC3)c2)nc1 | condition met
* CC[C@@H](Nc1c(C#N)c(-c2ccc(-c3cccc(C)c3F)cc2)nc2cnccc12)C(=O)O | condition met
* Cn1cc(-c2ccc3occ(-c4cccc(-c5ccncc5)c4)c3n2)cn1 | condition met

###

Growth Rate: recorded values
system: U2OS; assay: Incucyte cell viability with U2OS; type: toxicity, cell-based; conditions: human, 12 h, 10 µM, compound concentration 10 uM, replicate number 2; further: unitless GR value; below 1 slowed growth and below 0 cell loss
measured_parameter: Growth Rate

- CCS(=O)(=O)c1ccc(OC)c(Nc2ncc(-c3cccc(F)c3)o2)c1 [GW621970X]: 0.84
- CC(=O)NCC(=O)N1[C@@H]2CC[C@H]1c1ccc(Nc3ncc(C(F)(F)F)c(NC4CCC4)n3)cc12: -0.14
- CC(C)CC(=O)Nc1cncc(-c2ccc3[nH]nc(-c4nc5c(-c6cccc(F)c6)cncc5[nH]4)c3c2)c1: -0.62
- CC(C)CNc1nc(N2CCN(CC3CCCOC3)CC2)ncc1C(=O)NCc1ccccc1 (configuration not stated): 0.63
- Cc1c[nH]c(-c2cnc(NCCNc3ccc(C#N)cn3)nc2-c2ccc(Cl)cc2Cl)n1: 0.87
- NC(=O)c1ccc(-c2nc(-c3ccc4c(c3)OCCO4)c(-c3ccccn3)[nH]2)cc1: 0.94
- Nc1nccc(-c2c(-c3ccc(F)cc3)ncn2C2CCN(Cc3ccon3)CC2)n1: 0.75
- COCCc1ccc(-c2c(C)nc3c(N4CCOCC4)ccnn23)cn1: 0.93
- Cl.Cl.O=[N+]([O-])c1ccc(CN2CCOCCOCCN(Cc3ccc([N+](=O)[O-])cc3)CCOCC2)cc1: 0.21
- COc1ccc(F)c(F)c1C(=O)c1cnc(NC2CCN(S(C)(=O)=O)CC2)nc1N: 0.02
- O=C(N[C@@H]1C2CCN(CC2)[C@H]1Cc1cccnc1)c1cc2ccccc2o1: 0.78
- CN(C)[C@H]1C[C@H](n2cnc(-c3ccc(F)cn3)c2-c2ccnc3[nH]ccc23)C1: 0.81
- COc1nc2ccc([C@@](O)(c3ccccc3)C3CCN(C(C)=O)CC3)cc2c(Cl)c1Cc1ccc(-n2cccn2)cc1: 0.72
- Cc1nccn1-c1ccc(Sc2cccc(C3(C(N)=O)CCOCC3)c2)cc1: 0.71
- CC(C)C[C@H](NC(=O)c1cc2ccccc2s1)C(=O)N1CCN(C(=O)[C@H](CO)NS(=O)(=O)c2ccc(Cl)cc2Cl)CC1: 0.51
- Cc1cc(C2CCCNC2)ccc1Nc1ncc(Br)c(NCc2cccc3c2C(C)(C)C(=O)N3)n1 (configuration not stated): 0.61
- CC1(C)C(=O)N([C@H]2CCc3c(O)cccc32)c2nc(Nc3cccc(CN4CCCC4)c3)ncc21: -0.3

###

tested on: HEK-293T; assay: Incucyte cell viability with HEK293T; assay type: toxicity, cell-based; details: human, 0 h, 10 µM, compound concentration 10 uM, replicate number 2; further: unitless GR value; below 1 slowed growth and below 0 cell loss
measured_parameter: Growth Rate

* CN(Cc1cccc(F)c1CNc1cc(F)c(S(=O)(=O)Nc2cscn2)c(F)c1)C(C)(C)C | 0.65
* Cc1sc(C(=O)c2cncnc2N[C@@H]2C[C@H](COS(N)(=O)=O)[C@@H](O)C2)cc1[C@@H]1NCCc2ccc(Cl)cc21 | -0.97
* CCCn1cc(-c2cc(C3C(=O)N(CC)c4ccc(C(F)(F)F)cc4N(c4ccccc4)C3=O)cc(OC)c2O)cn1 (centres undefined) | 0.59
* NC(=O)OC[C@H](NC(=O)Cn1nc(-c2ccc(Cl)cc2)n(C[C@H](O)C(F)(F)F)c1=O)c1cccc(C(F)(F)F)c1 | -0.43

###

system: U2OS; experiment: Incucyte cell viability with U2OS; format: toxicity, cell-based; conditions: human, 18 h, 10 µM, compound concentration 10 uM, replicate number 1; further: unitless GR value; below 1 slowed growth and below 0 cell loss
Let's look at some compounds and their measured Growth Rate.
measured_parameter: Growth Rate

• O=C(Nc1cc(-c2cn[nH]c2)ccc1N1CCOCC1)c1ccc(-c2ccc3ncccc3c2)o1 = 0.39
• CO[C@H](C)CN1CC[C@]2(C)c3cccc(O)c3C[C@H]1C2(C)C.Cl = 0.92
• CCCNc1ccc2ncc(-c3ccncc3)n2n1 = 0.14
• CN(C)[C@H]1CC[C@H](Nc2ncc3ncnc(Nc4ccc(F)c(Cl)c4)c3n2)CC1 = 0.38
• CCc1cc2c(cc1-c1cccc(S(=O)(=O)F)c1)C(C)(C)c1[nH]c3cc(C#N)ccc3c1C2=O = 0.76
• COc1ccccc1C(=O)Nc1cccc(NC(=O)c2cccc(C)c2)c1 = 0.83
• CNc1nc(-c2cc(C(=O)N3CCN(Cc4ccc(Cl)cc4)CC3)c(Cl)cn2)cs1 = 0.4
• C[C@@H](c1ccc(F)cc1)n1nnc2cnc3ccc(-c4ccc5ocnc5c4)cc3c21 = 0.87
• CNS(=O)(=O)c1ccc(N(C)C)c(Nc2ncnc3cc(OC)c(OC)cc23)c1 = 0.85
• Cc1nnc2ccc(-c3cccc(C(F)(F)F)c3)nn12 = 0.84
• O=C(NNC(=O)c1ccc(CNS(=O)(=O)c2ccc(F)c(Cl)c2)cc1)c1ccccc1 = 0.97
• CS(=O)(=O)O.C[C@H](NC(=O)c1cnc2n1[C@](C)(Cc1ccc(C#N)cc1)C(=O)N2c1cc(Cl)c(F)c(Cl)c1)C(=O)NC1(c2ccccn2)CC1 = 0.98
• Cn1cc(-c2ccc3occ(-c4cccc(-c5ccncc5)c4)c3n2)cn1 = 0.65
• NS(=O)(=O)c1ccc(Nc2nc(OCC3CCCCC3)c3nc[nH]c3n2)cc1 = 0.8
• CO[C@H](C)CN1CC[C@@]2(C)c3ccc(O)cc3C[C@@H]1C2(C)C.Cl = 0.87
• COc1cc(F)ccc1-c1cc(Nc2cc(CS(C)(=N)=O)ccn2)ncc1F (centres undefined) = 0.29
• CC(=O)c1ccc2c(c1)/C(=C(/NC1CCN(C)CC1)c1ccc3c(c1)OCO3)C(=O)N2 = 0.32
• c1cnc2cc3c(cc2n1)[C@@H]1CNC[C@H]3C1 = 0.91
• COc1cc2nc(C)nc(N[C@H](C)c3cc(N)cc(C(F)(F)F)c3)c2cc1O[C@H]1CCOC1 = 0.93

###

system: U2OS; experiment: Incucyte cell viability with U2OS; format: toxicity, cell-based; details: human, 24 h, 10 µM, compound concentration 10 uM, replicate number 1; further: unitless GR value; below 1 slowed growth and below 0 cell loss
Response field label: string, one of condition met (Growth Rate strictly below 0.8) or condition not met.

• CC1(C)OC(=O)c2ccc(Nc3ncc(-c4nnco4)c(N[C@H](CO)c4ccccc4)n3)cc21 = condition met
• CCN1C(=O)N(c2c(F)c(OC)cc(OC)c2F)Cc2cnc3[nH]c(CN4CCOCC4)cc3c21 [PEMIGATINIB] = condition met
• CCCCCNC(=O)N1CCC(CN(Cc2ccc(Cl)cc2)Cc2ccc([N+](=O)[O-])s2)C1 (configuration not stated) [SR9011] = condition not met
• CS(C)(=O)=Nc1ccc(-c2ccc(-c3nc4[nH]c(O[C@@H]5CO[C@H]6[C@@H]5OC[C@H]6O)nc4cc3Cl)cc2)cc1 = condition met
• CCCCNc1ncc2c(-c3ccc(CN4CCN(C)CC4)cc3)cn([C@H]3CC[C@H](O)CC3)c2n1 = condition met
• N=C(N)NCCC[C@@H](NC(=O)C(c1ccccc1)c1ccccc1)C(=O)NCc1ccc(CNC(N)=O)cc1.O=C(O)C(F)(F)F = condition not met
• CCCCC[C@@](C)(O)/C=C/[C@H]1C(=O)CC(O)C1C/C=C\CCCC(=O)O (some centres not stated) = condition not met
• COc1cc(N(C)c2ccnc3ccc(C(F)(F)F)cc23)cc(OC)c1OC = condition not met
• Cc1sc(C(=O)c2cncnc2N[C@@H]2C[C@H](COS(N)(=O)=O)[C@@H](O)C2)cc1[C@@H]1NCCc2ccc(Cl)cc21 = condition met
• CC#CC(=O)N1CCN(c2nc(-c3ccc(Oc4ccccc4)cc3)c(C(N)=O)s2)CC1 = condition met
• Cc1csc(S(=O)(=O)N(CC(C)C)c2cc3c(cc2OCc2ccc(C(=O)O)cc2)CCC3)n1 = condition not met
• CCN(c1ccccc1)c1cc(NC)[n+](C)c(C)n1.[Cl-] = condition not met
• C=CC(=O)Nc1ccc(C(=O)Nc2n[nH]c3c2CN(C(=O)N[C@H](CN(C)C)c2ccccc2)C3(C)C)cc1 = condition met
• Cn1cncc1-c1cn(-c2cccc(C(=O)Nc3cccc(C(F)(F)F)c3)c2)nn1 = condition not met
• CC(CNS(=O)(=O)C(C)C)c1ccc(-c2ccc(C#N)cc2)cc1 (configuration not stated) = condition not met
